Catalogue of substances with associated amyloid nucleation score
# test_name: amyloid nucleation score (Sup35N fusion, yeast selection) (log enrichment); library NNK1; higher = more nucleation; inactive = no reads after selection;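 further: zero at mode of non-aggregating sequences after 7 days selection at 30°C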
attribute_measured: amyloid nucleation score

[[record]]
substance = "GCSIEFFDYGGY"
attribute_measured = "amyloid nucleation score"
value_reported = -0.183

[[record]]
substance = "TVRCSMGYILYRWVHSRLGR"
attribute_measured = "amyloid nucleation score"
value_reported = 1.4

[[record]]
substance = "YSAVWRSMYTQNLWVPTGMG"
attribute_measured = "amyloid nucleation score"
value_reported = 1.83

[[record]]
substance = "SNSGIKGFGGMIPRV"
attribute_measured = "amyloid nucleation score"
value_reported = 3.92

[[record]]
substance = "GLMLHCGGLCWLLVVV"
attribute_measured = "amyloid nucleation score"
value_reported = -0.539

[[record]]
substance = "SFSGYMLDCGEHTQMYSASI"
attribute_measured = "amyloid nucleation score"
value_reported = 0.185

[[record]]
substance = "DAMFLL"
attribute_measured = "amyloid nucleation score"
value_reported = -0.358

[[record]]
substance = "THVSDFLWDVNVSGNNTCSR"
attribute_measured = "amyloid nucleation score"
value_reported = 1.14

[[record]]
substance = "FMPYWNTLNFMSYGVRLIHK"
attribute_measured = "amyloid nucleation score"
value_reported = 0.231


---

# test_name: amyloid nucleation score (Sup35N fusion, yeast selection) (log enrichment); library NNK1; higher = more nucleation; inactive = no reads after selection
attribute_measured: amyloid nucleation score

[[record]]
substance = "NGYEMVQVLTSFMAAMGVFW"
attribute_measured = "amyloid nucleation score"
value_reported = 0.256

[[record]]
substance = "RVVLGTGDLVSCRFIFSLEK"
attribute_measured = "amyloid nucleation score"
value_reported = -1.25

[[record]]
substance = "MLLIVPLFDSEVVWPGVVWT"
attribute_measured = "amyloid nucleation score"
value_reported = -0.235

[[record]]
substance = "LRRLTTVAGIVIAVTSEDDT"
attribute_measured = "amyloid nucleation score"
value_reported = 0.595

[[record]]
substance = "FVSPVTSSQNSPVIVVRSLL"
attribute_measured = "amyloid nucleation score"
value_reported = -0.561

[[record]]
substance = "TSILAKNIIYCHYVGFPLGC"
attribute_measured = "amyloid nucleation score"
value_reported = 5.97

[[record]]
substance = "LDILMGGGHTEDCTLPGHLS"
attribute_measured = "amyloid nucleation score"
value_reported = 0.307

[[record]]
substance = "KCRVHSSN"
attribute_measured = "amyloid nucleation score"
value_reported = -1.08

[[record]]
substance = "FGASIGDGDFRVM"
attribute_measured = "amyloid nucleation score"
value_reported = 0.069

[[record]]
substance = "CYELSGWGNSWVGNRSLGFV"
attribute_measured = "amyloid nucleation score"
value_reported = 0.626

[[record]]
substance = "RGCRSCAFLIPGLVLCWWKE"
attribute_measured = "amyloid nucleation score"
value_reported = 0.069

[[record]]
substance = "VHVFSCLCPLLGSMIFLWMV"
attribute_measured = "amyloid nucleation score"
value_reported = -0.871

[[record]]
substance = "HANLGFS"
attribute_measured = "amyloid nucleation score"
value_reported = -0.742

[[record]]
substance = "DIILLYSLFADIFISGRIYT"
attribute_measured = "amyloid nucleation score"
value_reported = -0.13

[[record]]
substance = "LFLLEINVSSRIWPSFPKSY"
attribute_measured = "amyloid nucleation score"
value_reported = 0.257

[[record]]
substance = "QMLQVPYQSFVALGVAWVRT"
attribute_measured = "amyloid nucleation score"
value_reported = 0.646

[[record]]
substance = "HAAEGIDESRKHSRHLIIVW"
attribute_measured = "amyloid nucleation score"
value_reported = 0.029

